Give DICI-based SM obtained with the ‘original’ LOAEL method 24 h for every item shown.
Tested on: sandwich-cultured human hepatocytes
Assay: Drug-induced cholestasis (DIC) assay: urea formation in sandwich-cultured human hepatocytes with and without the bile salt mixture
Conditions: lowest in vitro concentration with DICI < 0.78 / Cmax,total; 24 h incubation
Text: Drug-induced cholestasis (DIC) is a major cause of attrition during drug development and post-marketing withdrawal. Early detection of DIC is crucial for avoiding financial losses and improving drug safety. […] Measuring changes in urea production allows for the quantitative evaluation of the hepatocyte's biochemical and functional integrity. The colorimetric quantitation of urea formation is based on the reaction between urea and diacetylmonoxime. […]
Format: numeric value only, no unit, no commentary.

# input Provide the documented DICI-based SM obtained with the ‘original’ LOAEL method 24 h with sandwich-cultured human hepatocytes as the system for CCc1ccc(CCOc2ccc(CC3SC(=O)NC3=O)cc2)nc1 (centres unmarked) [Pioglitazone, pioglitazone]
# output 101.69

# input State its DICI-based SM obtained with the ‘original’ LOAEL method 24 h on sandwich-cultured human hepatocytes: CCN(CC)C(=O)/C(C#N)=C/c1cc(O)c(O)c([N+](=O)[O-])c1 [Entacapone, entacapone]
# output 29.95

# input Item: COc1ccccc1Oc1c(NS(=O)(=O)c2ccc(C(C)(C)C)cc2)nc(-c2ncccn2)nc1OCCO [Bosentan, bosentan] Test system: sandwich-cultured human hepatocytes Read-out: DICI-based SM obtained with the ‘original’ LOAEL method 24 h Value: ?
# output 27.06

# input Lookup: DICI-based SM obtained with the ‘original’ LOAEL method 24 h / sandwich-cultured human hepatocytes / Cc1ccc(C(=O)c2cc(O)c(O)c([N+](=O)[O-])c2)cc1 [Tolcapone, tolcapone]
# output 1.05

# input Notebook entry, sandwich-cultured human hepatocytes assay: DICI-based SM obtained with the ‘original’ LOAEL method 24 h of CN(CCOc1ccc(CC2SC(=O)NC2=O)cc1)c1ccccn1 (centres unmarked) [Rosiglitazone, rosiglitazone] = ?
# output 56.31

# input Please tell me: DICI-based SM obtained with the ‘original’ LOAEL method 24 h of CCOC(=O)CN[C@@H](C(=O)N1CC[C@H]1C(=O)NCc1ccc(/C(N)=N\O)cc1)C1CCCCC1 [Ximelagatran, ximelagatran] , system sandwich-cultured human hepatocytes?
# output 500

# input Notebook: pull reported DICI-based SM obtained with the ‘original’ LOAEL method 24 h for sandwich-cultured human hepatocytes, entry O=C1CC2(CCCC2)CC(=O)N1CCCCN1CCN(c2ncccn2)CC1 [Buspirone, buspirone]
# output 5000

# input Test system sandwich-cultured human hepatocytes; read-out DICI-based SM obtained with the ‘original’ LOAEL method 24 h; what value for C1CCC(C(CC2CCCCN2)C2CCCCC2)CC1 (centres unmarked) [Perhexiline, perhexiline] ?
# output 30.09

# input Can you look up DICI-based SM obtained with the ‘original’ LOAEL method 24 h on sandwich-cultured human hepatocytes for CC(=O)CC(c1ccccc1)c1c(O)c2ccccc2oc1=O (centres unmarked) [Warfarin, warfarin] ?
# output 71.74

# input Short answer please: DICI-based SM obtained with the ‘original’ LOAEL method 24 h, sandwich-cultured human hepatocytes, entry CCC(=O)O[C@@H]1CC(=O)O[C@H](C)C/C=C/C=C/[C@H](O)[C@H](C)C[C@H](CC=O)[C@H](O[C@@H]2O[C@H](C)[C@@H](O[C@H]3C[C@@](C)(O)[C@@H](OC(=O)CC)[C@H](C)O3)[C@H](N(C)C)[C@H]2O)[C@H]1OC [Midecamycin, midecamycin]
# output 50

# input Param readout= DICI-based SM obtained with the ‘original’ LOAEL method 24 h; system= sandwich-cultured human hepatocytes; entry= CC[C@H]1OC(=O)[C@H](C)[C@@H](O[C@H]2C[C@@](C)(OC)[C@@H](O)[C@H](C)O2)[C@H](C)[C@@H](O[C@@H]2O[C@H](C)C[C@H](N(C)C)[C@H]2O)[C@](C)(O)C[C@@H](C)C(=O)[C@H](C)[C@@H](O)[C@]1(C)O [Erythromycin, erythromycin] ; returns value.
# output 50.38
